Where these numbers come from: the RNAGym collection of RNA variant scans (doi:10.7554/elife.80360)

B1: HDV Ribozyme (parent)
chain: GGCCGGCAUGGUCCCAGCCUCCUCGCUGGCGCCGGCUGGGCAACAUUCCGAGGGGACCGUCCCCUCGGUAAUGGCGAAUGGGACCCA

Variants of: B1
Assay: self-cleavage, relative activity (ratio to wild type); higher = more cleavage; co-transcriptional
Result Type: self-cleavage
Answer with the value's number alone.

In [3]: df
Out[3]:
                              item_sequence  recorded_result
0  GGCCGGCAUGGUCCCAGCCUCCUCGCUGGCGCCGGCUGGGCUAGAUUCCGAGGGGACCGUCCCCUCGGUAAUGGCGAAUGGGACCCA [A42U C44G]            0.464
1  GGCCGGCAUGGUCCCAGCCUCCUCGCUGGCGCCGGCUGGGCAACACUCCGAGGGGACCGUCCCCUGGGUAAUGGCGAAUGGGACCCA [U46C C66G]            0.594
2  GGCCGGCAUGGUCCCAGCCUCCUCGCUGGCUCCAGCUGGGCAACAUUCCGAGGGGACCGUCCCCUCGGUAAUGGCGAAUGGGACCCA [G31U G34A]           0.0804
3  GGCCGGAAUGGUCCCAGCCUCCUCGCUGGCGCCGGCUGGGCCACAUUCCGAGGGGACCGUCCCCUCGGUAAUGGCGAAUGGGACCCA [C7A A42C]             0.19
4  GGCCGGCAUGGUCCCAGCCUCCUCGCUGGCGCCGGCUGGGCAACAUUCAGAGGGGACCGUCCCCCCGGUAAUGGCGAAUGGGACCCA [C49A U65C]            0.923

Task: Any idea what its self-cleavage is? The variant is GGCCGGCAUGGUCCCAGCCUCCUCGCUGGCGCCGGCUGGGCAUCAUUCCGAGGGGACCGUACCCUCGGUAAUGGCGAAUGGGACCCA [A43U C61A]
Result: 0.532

Task: What do you have for GGCCGGCAUGGUCCCAGCCUCCUCGCUGGCGCCGGCUGGGCAACAUUCCGAGGGGACCGUCCCCUCGGUAAUGGCGACUGUGACCCA [A78C G81U] ?
Result: 0.128

Task: What do you have for GGCCGGCAUGGUCCCAGCCUCCUCGCUGGCGCCGGCUGGGCAACAUUCCGAGGGGACCGUCCCCUCGCUAAUGGCGCAUGGGACCCA [G68C A77C] ?
Result: 0.185

Task: What do you have for GGCCGGCAUGUUCCCAGCCUCCUCGCUGGCGCCGGCUGGGCAACAUUCCGAGGGGGCCGUCCCCUCGGUAAUGGCGAAUGGGACCCA [G11U A56G] ?
Result: 0.378

Task: What do you have for GGCCGGCAUGGUCCCAGCCUCUUCGCUGGCGCCGGCUGGGCAACAUUCCGAGGGGACCGUCCCCUCGGUAAUGGCGAAUGGGAGCCA [C22U C84G] ?
Result: 0.291

Task: What do you have for GGCCGGCAUGGUCCCAGCCUCCUCGCUGGCCCCGGCUGGGCAACAUUCCGAGGGGACCGUCCCCUCAGUAAUGGCGAAUGGGACCCA [G31C G67A] ?
Result: 0.402

Task: What do you have for GGCCGGCAUGUUCCCAGCCUCCUCGCUGGCGCCGGCUGGGCAACAUUCCGAGGGGACCGUCCCCUCGGUAAUGGCGCAUGGGACCCA [G11U A77C] ?
Result: 0.0652

Task: What do you have for GGCCGGCAUGGUCCCAGCCUCCUCGUUGGCGCCGGCUGGGCAACAUUCCGAGGGGACCGUCCCCUCAGUAAUGGCGAAUGGGACCCA [C26U G67A] ?
Result: 0.947

Task: What do you have for GACCGGCAUGGUCCCAGCCUCCUCGCUGGCGCCGGCUGGGCAACAUUCCGAGCGGACCGUCCCCUCGGUAAUGGCGAAUGGGACCCA [G2A G53C] ?
Result: 0.348

Task: What do you have for GGCCGGCAUGGUGCCAGCCUCCUCGCUGGCGCCGGCUGGGCAACAUUCGGAGGGGACCGUCCCCUCGGUAAUGGCGAAUGGGACCCA [C13G C49G] ?
Result: 0.356

Task: What do you have for GGCCGGCAUGGUCCCAGCCUCCUCGCUGGCGCCGGCUGGGCAACAUUCCGAGGGGACGGUCCCCUCGGUAAUGGCAAAUGGGACCCA [C58G G76A] ?
Result: 1

Task: What do you have for GGCAGGCAUGGUCCCAGCCUCCUCGCUGGCGCCGGCUGGGCAACAUUCCGAGGGGACCGUCCCAUCGGUAAUGGCGAAUGGGACCCA [C4A C64A] ?
Result: 0.157

Task: What do you have for GGCCGGCAUGGACCCAGCCUCCUCGCUGGCGCCGGCUGGGCAACAUUCCGAGGGGACCGUCCCCUCCGUAAUGGCGAAUGGGACCCA [U12A G67C] ?
Result: 0.244
